Test system: MCF7
assay details: Cell cycle arrest in human MCF7 cells assessed as accumulation at G0/G1 phase at IC50 after 24 hrs by propidium iodide staining based flow cytometric analysis (reference value: 59.5%)
Assay type: functional

>  <compound>
C=C1CC[C@@H]2[C@](C)(CO)[C@H](O)CC[C@@]2(C)[C@@H]1CC1CN(Cc2ccccc2)[C@@]2(C(=O)Nc3ccc(Br)cc32)[C@]12C(=O)OC[C@H]2O (stereo not given in full)

>  <Activity>
40.3%

$$$$
>  <compound>
C=C1CC[C@@H]2[C@](C)(CO)[C@H](O)CC[C@@]2(C)[C@@H]1CC1CN(Cc2ccccc2)[C@@]2(C(=O)Nc3ccc(Cl)cc32)[C@]12C(=O)OC[C@H]2O (stereo not given in full)

>  <Activity>
42.7%

$$$$
>  <compound>
C=C1CC[C@@H]2[C@](C)(CO)[C@H](O)CC[C@@]2(C)[C@@H]1CC1CN(Cc2ccccc2)[C@@]2(C(=O)Nc3c(F)cccc32)[C@]12C(=O)OC[C@H]2O (stereo not given in full)

>  <Activity>
46.6%

$$$$
>  <compound>
C=C1CC[C@@H]2[C@](C)(CO)[C@H](O)CC[C@@]2(C)[C@@H]1CC1CN(Cc2ccccc2)[C@@]2(C(=O)c3cccc4cccc2c34)[C@]12C(=O)OC[C@H]2O (stereo not given in full)

>  <Activity>
46.3%

$$$$
>  <compound>
C=C1CC[C@@H]2[C@](C)(CO)[C@H](O)CC[C@@]2(C)[C@@H]1CC1CN(Cc2ccccc2)[C@@]2(C(=O)Nc3ccc(C)cc32)[C@]12C(=O)OC[C@H]2O (stereo not given in full)

>  <Activity>
42.4%

$$$$

From: ChEMBL document CHEMBL3734695
